target: eTau 4 (FIG. 17); assay: relative binding affinity, method not named (Table 4); fifth column, headed eTau 4
Attribute Measured: Kd (nM)
Number only, in nM; omit the unit.

Past entries and their recorded results:
VH4/Vk1 (antibody, V domains shown, member of the group m7; also called humanized IPN002 variant VH4/Vk1) VH: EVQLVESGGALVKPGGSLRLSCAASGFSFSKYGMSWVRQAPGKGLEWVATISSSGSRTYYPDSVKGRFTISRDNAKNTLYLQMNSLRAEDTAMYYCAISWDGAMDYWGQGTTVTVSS VL: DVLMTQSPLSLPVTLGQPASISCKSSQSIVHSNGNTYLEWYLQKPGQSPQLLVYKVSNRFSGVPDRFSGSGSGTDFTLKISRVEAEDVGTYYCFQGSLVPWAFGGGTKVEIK; 0.28
humanized IPN002 variant VH2/Vk2 (antibody, V domains shown) VH: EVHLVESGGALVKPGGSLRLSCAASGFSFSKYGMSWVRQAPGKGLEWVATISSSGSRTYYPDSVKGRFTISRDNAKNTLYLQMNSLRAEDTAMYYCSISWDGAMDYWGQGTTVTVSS VL: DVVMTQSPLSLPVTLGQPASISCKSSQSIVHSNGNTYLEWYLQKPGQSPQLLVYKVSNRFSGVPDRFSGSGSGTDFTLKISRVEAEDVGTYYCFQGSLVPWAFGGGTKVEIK; 0.294

As a next step, examine the binder that follows.
Q: Return reported Kd. Input binder: VH3/Vk2 (antibody, V domains shown, member of the group m7; also called humanized IPN002 variant VH3/Vk2) VH: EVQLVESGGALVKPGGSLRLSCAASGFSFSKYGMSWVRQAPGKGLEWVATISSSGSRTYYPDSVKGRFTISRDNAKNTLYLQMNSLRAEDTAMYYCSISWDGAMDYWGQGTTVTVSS VL: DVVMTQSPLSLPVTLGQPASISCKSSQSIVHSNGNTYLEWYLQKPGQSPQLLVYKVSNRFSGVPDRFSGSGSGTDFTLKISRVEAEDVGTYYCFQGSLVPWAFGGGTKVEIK
Ans: 0.589

These entries and their values trace back to patent US20160122421A1.
